Target: Grb2 SH2 (UniProt P62993)
Sequence (P62993 whole entry, looked up, the tested form may be a part): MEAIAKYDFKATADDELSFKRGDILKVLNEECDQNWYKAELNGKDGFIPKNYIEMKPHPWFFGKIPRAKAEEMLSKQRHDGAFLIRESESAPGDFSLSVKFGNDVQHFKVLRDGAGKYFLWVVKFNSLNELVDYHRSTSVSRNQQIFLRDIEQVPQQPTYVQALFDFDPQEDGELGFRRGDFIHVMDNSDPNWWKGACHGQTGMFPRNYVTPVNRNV
Experiment: SH2 binding enrichment of the phosphorylated peptide, bacterial display (enrichment ratio); higher = better substrate or ligand; peptides without Tyr show the background;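 also: peptide library displayed on the E. coli surface as eCPX fusions, selected cells deep-sequenced, score is each peptide's frequency after selection divided by its frequency in the input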
Tick rule met if SH2 binding enrichment is 0.9 or greater. Tick rule not met if SH2 binding enrichment is less than 0.9.

Ask | Kindly determine if SH2 binding enrichment recorded for AHEALYLEADL [CENPF_Y1920_E1915A] is above or exactly 0.9.
Reply | rule not met

Ask | Dear colleague, could you confirm whether FQRITYHNWRH [PDE6B_Y556_R552Q_YF] has SH2 binding enrichment at or above 0.9?
Reply | rule met

Ask | Tell me whether SH2 binding enrichment is at least 0.9 here: SARFRYLMAEK [LDHB_Y173]
Reply | rule met

Ask | Does SH2 binding enrichment meet or surpass 0.9 for LSDVIYVILRK [PMP22_Y153_G150D] ?
Reply | rule met

Ask | Please tell me: is the sequence GADDSYFTVRS [ZAP70_Y492_A495V_YF] at or over 0.9 in terms of SH2 binding enrichment?
Reply | rule not met

Ask | Threshold query (SH2 binding enrichment >= 0.9) on PSQRRYLYYYS [PTEN_Y174_V175L]
Reply | rule not met

Ask | Dear colleague, could you confirm whether EKQARYEIVVE [CDH5_Y223] has SH2 binding enrichment at or above 0.9?
Reply | rule not met

Ask | Is the recorded value of SH2 binding enrichment equal to or greater than 0.9 for this sequence? VIERSYTSADG [DHCR7_Y382_C380R]
Reply | rule not met

Ask | hey, is SH2 binding enrichment for this one >= 0.9? DMLYQYLKQIE [RPAP3_Y569]
Reply | rule met

Ask | Reported SH2 binding enrichment at or above 0.9? DCLASYLDKVR [KRT10_Y160_R156C]
Reply | rule met

Ask | Is it the case that PGGKIYISPLK [RB1_Y805_N803K] has SH2 binding enrichment reaching or exceeding 0.9?
Reply | rule met

Ask | State whether the measured SH2 binding enrichment reaches 0.9, counting equality as reaching it, for TLSGIYQFIIA [FOXL2_Y81_YF]
Reply | rule met

Ask | Is it the case that NTGDYYDLYGG [PTPN11_Y63] has SH2 binding enrichment reaching or exceeding 0.9?
Reply | rule met

Ask | Dear colleague, could you confirm whether WKEIEYEVVPD [CPS1_Y634_R638P] has SH2 binding enrichment at or above 0.9?
Reply | rule not met

Ask | Please check the record GFEVVYMTEPI [HSP90AB1_Y512] and state if its SH2 binding enrichment is at or above 0.9.
Reply | rule not met

Ask | Determine whether measured SH2 binding enrichment meets or exceeds 0.9 for TTGGFYSFGGG [KRT24_Y120_A115T_YF]
Reply | rule not met

Ask | Entry GEHSIYSTVNN [CD55_Y266_C267S] : is its SH2 binding enrichment no less than 0.9?
Reply | rule not met

Ask | Record GPGGDYAAMGA [ERBB3_Y1276] ; criterion: SH2 binding enrichment no lower than 0.9. Met?
Reply | rule not met

Ask | Does the sequence WGLRSYYETSK [MAGED2_Y448] have recorded SH2 binding enrichment that is 0.9 or more?
Reply | rule not met

Ask | Determine whether this sequence has SH2 binding enrichment no lower than 0.9: ADTETYLLEKS [MYH7_Y266_I263T]
Reply | rule not met

Ask | Textbook exercise: given the entry RFLRGYQQDAF [HLA-A_Y137_R138Q_YF] , state whether its SH2 binding enrichment is greater than or equal to 0.9.
Reply | rule not met

Ask | In plain terms: is recorded SH2 binding enrichment at least 0.9 for LSQAKYQIRYR [CRLF1_Y272_F268S] ?
Reply | rule met

Ask | hey, is SH2 binding enrichment for this one >= 0.9? SGVNKYSTAFG [GJB3_Y16]
Reply | rule not met

Ask | Identify whether the reported SH2 binding enrichment of the following sequence is 0.9 or greater: SIRFNYLLDVL [FGFR4_Y237_YF]
Reply | rule met

Ask | Would you say LYSDHYSPSGR [TMPRSS12_Y23] shows SH2 binding enrichment at minimum 0.9?
Reply | rule met

Ask | Given the entry DKPENYRRLDI [VHL_Y175_V170D] , answer whether its SH2 binding enrichment meets or surpasses 0.9.
Reply | rule not met

Ask | Identify whether the reported SH2 binding enrichment of the following sequence is 0.9 or greater: MPQNEYIELHC [NSA2_Y6_R11C]
Reply | rule met

Ask | State whether the measured SH2 binding enrichment reaches 0.9, counting equality as reaching it, for IALNSCHSRNC [IFNGR1_Y397_Y397C]
Reply | rule met

Ask | I'd appreciate it if you could say whether TRDVNYGWIIR [MT-CYB_Y75] has SH2 binding enrichment at least equal to 0.9.
Reply | rule met

Ask | Decide: is the reported value of SH2 binding enrichment for AEDKPYAELWT [MPI_Y46_M51T] equal to or greater than 0.9?
Reply | rule met

Ask | Does FPCSVYVPDEW [INSR_Y1011] have a reported SH2 binding enrichment of at least 0.9?
Reply | rule not met

Ask | Kindly determine if SH2 binding enrichment recorded for KSEKVYTRHGV [FLOT1_Y56] is above or exactly 0.9.
Reply | rule not met

Ask | API: above_or_equal(metric=SH2 binding enrichment, cutoff=0.9) for item KTVQDYLEKFF [MMP8_Y36_YF]
Reply | rule met

Ask | Could you tell me if the measured SH2 binding enrichment of RTEAQYRFIYM [PTPN11_Y511_Q506R] reaches 0.9 or more?
Reply | rule not met

Ask | Given KRLAVYQAGAR [APOE_Y180] , state whether its SH2 binding enrichment is at least 0.9.
Reply | rule met

Ask | I'd appreciate it if you could say whether HICTAYELVLA [DHCR24_Y190] has SH2 binding enrichment at least equal to 0.9.
Reply | rule met

Ask | Check if SH2 binding enrichment >= 0.9 (inclusive). Item: FSGKAYADEEQ [CRIM1_Y826_R831Q]
Reply | rule met

Ask | Threshold query (SH2 binding enrichment >= 0.9) on TQPSPYAVFRF [RPGRIP1_Y823_YF]
Reply | rule met

Ask | State whether the measured SH2 binding enrichment reaches 0.9, counting equality as reaching it, for VFAADYFKLLG [ROR2_Y645_YF]
Reply | rule met

Ask | Does SH2 binding enrichment meet or surpass 0.9 for SGIYQYSIAKF [FOXL2_Y83_I84S] ?
Reply | rule met

Ask | Reported SH2 binding enrichment reaches at least 0.9 for VHVEVYDRPSP ?
Reply | rule not met

Ask | Item NFFEFYVDDPP [GCHFR_Y48_YF] with SH2 binding enrichment of 0.9 or above?
Reply | rule met

Ask | Would you say GMTLSYLFREP [NDUFS8_Y74] shows SH2 binding enrichment at minimum 0.9?
Reply | rule met

Ask | Record EARRVYRDIIH [ALDH5A1_Y175_G176R] ; criterion: SH2 binding enrichment no lower than 0.9. Met?
Reply | rule met

Ask | Test whether the sequence RGNMFYENSFA [EGFR_Y113_YF] records SH2 binding enrichment of 0.9 or higher.
Reply | rule met

Ask | Threshold query (SH2 binding enrichment >= 0.9) on ITRDIYETDFF [INSR_Y1185_M1180I_YF]
Reply | rule not met

Ask | Hi, just wondering whether AGQEKYSAMRD [HRAS_Y64_E63K] shows SH2 binding enrichment of 0.9 or higher.
Reply | rule not met

Ask | Assess whether reported SH2 binding enrichment for KRLWDYGMSSS [F8_Y1728_E1723K] sits at 0.9 or higher.
Reply | rule met

Ask | Given KKKKQYKDKYL [CASK_Y708] , state whether its SH2 binding enrichment is at least 0.9.
Reply | rule not met

Ask | SH2 binding enrichment >= 0.9 for IVLRSYPASGH [NID2_Y449] ?
Reply | rule not met

Ask | Please tell me: is the sequence LGSNGYKKLLK [SEPSECS_Y334] at or over 0.9 in terms of SH2 binding enrichment?
Reply | rule not met
